Organism: Homo sapiens
Experiment: Selectivity ratio of Kd for binding affinity to human wild-type partial length PI3Kalpha (R108 to N1068 residues) expressed in mammalian expression system to Kd for binding affinity to wild-type human partial length mTOR (L1382 to W2549 residues) expressed in mammalian expression system
Form field: Selectivity ratio (one value per entry).

input.smiles: C[C@@H]1COCCN1c1nc(-c2ccc(N)nc2)nc2c1C[C@@H]1COCCN21
relation: =
Selectivity ratio: 17.9
//
input.smiles: C[C@@H]1COCCN1c1nc(-c2cnc(N)cn2)nc2c1C[C@@H]1COCCN21
relation: =
Selectivity ratio: 457
//
input.smiles: C[C@@H]1COCCN1c1nc(-c2cnc(N)nc2)nc2c1C[C@@H]1COCCN21
relation: =
Selectivity ratio: 8.6
//
input.smiles: Nc1cc(C(F)F)c(-c2nc(N3C4CCC3COC4)nc(N3C4CCC3COC4)n2)cn1
relation: >
Selectivity ratio: 3700
